- assayedSystem: 2211 receptor (Homo sapiens, UniProt Q15391, A193V/A252V/A98G/F243I/K54E)
- Construct: expressed in transfected cells; host or cells: Saccharomyces yeast; strain CY10981 with FUS1-LacZ plasmid for β-galactosidase assays, strain CY10560 (FUS1-HIS3) for growth selection
- Sequence (Q15391 with tags, fused parts or gaps K54E/A98G/A193V/F243I/A252V): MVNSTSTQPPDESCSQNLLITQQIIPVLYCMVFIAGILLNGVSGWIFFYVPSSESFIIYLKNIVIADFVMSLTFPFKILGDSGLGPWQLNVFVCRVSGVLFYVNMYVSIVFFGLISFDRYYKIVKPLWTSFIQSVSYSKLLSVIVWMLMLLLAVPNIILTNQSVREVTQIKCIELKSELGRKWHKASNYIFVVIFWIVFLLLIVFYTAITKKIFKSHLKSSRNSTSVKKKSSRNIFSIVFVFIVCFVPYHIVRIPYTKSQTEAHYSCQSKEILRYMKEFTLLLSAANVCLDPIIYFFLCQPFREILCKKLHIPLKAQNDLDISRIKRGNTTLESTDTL
- assayMethodText: Yeast growth plate assay (FUS1-HIS3 reporter) on selective media containing ligand
- Type: cell-based
- recordedConditions: 2211 (parent) receptor, selective plates with ligand
attributeMeasured: receptor response to ligand (yeast growth)

compound: CC(=O)N[C@H]1[C@@H](OP(=O)(O)OP(=O)(O)OC[C@H]2O[C@@H](n3ccc(=O)[nH]c3=O)[C@H](O)[C@@H]2O)O[C@H](CO)[C@@H](O)[C@@H]1O
reported: responds
//
compound: Cc1cn([C@H]2C[C@H](O)[C@@H](COP(=O)(O)OP(=O)(O)O[C@H]3O[C@H](CO)[C@@H](O)[C@H](O)[C@H]3O)O2)c(=O)[nH]c1=O
reported: do not activate
//
compound: O=c1ccn([C@@H]2O[C@H](COP(=O)(O)OP(=O)(O)O)[C@@H](O)[C@H]2O)c(=O)[nH]1 [UDP, uridine diphosphate]
reported: do not activate
//
compound: CC(=O)N[C@H]1[C@@H](OP(=O)(O)OP(=O)(O)OC[C@H]2O[C@@H](n3ccc(=O)[nH]c3=O)[C@H](O)[C@@H]2O)O[C@H](CO)[C@H](O)[C@@H]1O
reported: responds
